Hey, just so you know, these numbers are from patent US20220306695A1.

target: Human C3 (Homo sapiens, UniProt P01024)
Positions of bridges follow the written chain, without caps; N, C: chain ends. Residues, ends and D or L forms follow the SMILES beside them.
measured_endpoint: Kd (nM)

# molecule, measured_endpoint, recorded_value
rows = [
    ("CC[C@H](C)[C@H](NC(C)=O)C(=O)N[C@H]1CSSC[C@@H](C(=O)N[C@H](C(=O)N[C@@H](CCC(=O)O)C(=O)NCC(=O)N[C@@H](CCC(=O)O)C(N)=O)[C@@H](C)O)NC(=O)[C@H](CCCNC(=N)N)NC(=O)[C@H](Cc2c[nH]cn2)NC(=O)[C@H](CCC(=O)O)NC(=O)CNC(=O)[C@H](Cc2c[nH]c3ccccc23)NC(=O)[C@H](CC(=O)O)NC(=O)[C@H](CCC(N)=O)NC(=O)[C@H](Cc2c[nH]c3ccccc23)NC(=O)[C@H]([C@@H](C)CC)NC1=O [Compound 24] (Ac-ICIWQDWGEHRCTEGE-NH2; disulfide 2-12)", "Kd", 28),
]
